System: double-stranded calf thymus DNA
Experiment: Thiazole orange displacement (DNA intercalation) assay
Format: binding
Settings: 1 µM calf thymus DNA base pairs, 2 µM thiazole orange; 7 min at room temperature; mean ± SD
Threshold check on EC50: strictly below 700 nM is Yes; on or above 700 nM is No.

{"columns": ["compound", "classification"],
 "data": [
  ["O=C1c2ccccc2-[n+]2ccc3c([nH]c4ccc(I)cc43)c21.[Cl-]", "No"],
  ["Cc1cc2c([nH]c3ccccc32)c2[n+]1-c1ccccc1C2=O.[Cl-]", "Yes"],
  ["O=C1c2ccccc2-[n+]2ccc3c([nH]c4cc(Br)ccc43)c21", "No"],
  ["O=C1c2ccc(Br)cc2-[n+]2ccc3c([nH]c4cc(Br)ccc43)c21", "No"],
  ["O=C1c2ccccc2-[n+]2cc(-c3ccccc3)c3c([nH]c4ccccc43)c21.[Cl-]", "No"],
  ["O=C1c2ccccc2-[n+]2ccc3c([nH]c4ccc(Br)cc43)c21.[Cl-]", "No"],
  ["CC[N+](C)(CC)CCC[n+]1c(-c2ccccc2)c2cc(N)ccc2c2ccc(N)cc21 [PI, propidium iodide, reference compound]", "Yes"],
  ["CCc1c[n+]2c(c3[nH]c4ccccc4c13)C(=O)c1ccccc1-2.[Cl-]", "No"],
  ["O=C1c2cc(Br)ccc2-[n+]2ccc3c([nH]c4ccccc43)c21.[Cl-]", "No"],
  ["O=C1c2ccccc2-[n+]2ccc3c([nH]c4ccccc43)c21", "Yes"]
]}

====

The following molecules are shown together with reported Selectivity index, IC50 (non-cancer) / IC50 (cancer) values.
System: non-cancer cell lines versus cancer cell lines
Test: Selectivity index from MTT IC50s
Assay type: cell-based, human
Conditions: mean IC50 non-cancer cell lines versus mean IC50 cancer cell lines; MTT
measured-endpoint: Selectivity index, IC50 (non-cancer) / IC50 (cancer)

{"columns": ["given-smiles", "experimental-result"],
 "data": [
  ["Cc1c[n+]2c(c3[nH]c4ccccc4c13)C(=O)c1ccccc1-2.[Cl-]", 0.82],
  ["O=C1c2cc(Br)ccc2-[n+]2ccc3c([nH]c4c(Cl)cc(Cl)cc43)c21.[Cl-]", 3.23],
  ["O=C1c2ccc(Br)cc2-[n+]2ccc3c([nH]c4cccc(Br)c43)c21.[Cl-]", 1.75],
  ["O=C1c2cc(Br)ccc2-[n+]2ccc3c([nH]c4ccc(Br)cc43)c21.[Cl-]", 1.78],
  ["O=C1c2cc(Br)ccc2-[n+]2ccc3c([nH]c4ccc(I)cc43)c21.[Cl-]", 5.55],
  ["O=C1c2ccccc2-[n+]2cc(-c3ccccc3)c3c([nH]c4ccccc43)c21.[Cl-]", 1.73],
  ["Cc1cc2c([nH]c3ccccc32)c2[n+]1-c1ccccc1C2=O.[Cl-]", 1.23]
]}

====

System: non-cancer cell lines versus cancer cell lines
Experiment: Selectivity index from MTT IC50s
Format: cell-based, human
Settings: mean IC50 non-cancer cell lines versus mean IC50 cancer cell lines; MTT
Selectivity index, IC50 (non-cancer) / IC50 (cancer): recorded values
measured-endpoint: Selectivity index, IC50 (non-cancer) / IC50 (cancer)

{"columns": ["given-smiles", "experimental-result"],
 "data": [
  ["O=C1c2ccccc2-[n+]2ccc3c([nH]c4ccccc43)c21", 1.09],
  ["O=C1c2ccc(Br)cc2-[n+]2ccc3c([nH]c4ccccc43)c21", 0.41],
  ["O=C1c2ccc(Br)cc2-[n+]2ccc3c([nH]c4ccc(Br)cc43)c21.[Cl-]", 2.15],
  ["O=C1c2ccccc2-[n+]2ccc3c([nH]c4ccc(I)cc43)c21.[Cl-]", 0.53]
]}
